# Tested on: Malme-3M
# measurement.notes: NCI tumour cell line growth inhibition, 48 h
The source made the active and inactive calls. Cut-off read from the data, not from the text of the source: active = GI50 up to about 1.1 µM and inactive = higher.
readout.type: GI50

Would you please look over these solved cases?
- molecule: "N#Cc1cccc(C2C(=O)c3ccc(C(=O)c4ccc5c(c4)C(=O)N(c4ccc(Oc6ccc(N7C(=O)c8ccc(C(=O)c9ccc%10c(c9)C(=O)N(c9cccc(C#N)c9)C%10=O)cc8C7=O)cc6)cc4)C5=O)cc3C2=O)c1 (centres undefined)"
  value.reported: "> 100 µM (inactive)"
- molecule: "CNNC1=NS(=O)(=O)c2cc(C#N)c(Cl)cc2S1"
  value.reported: "> 10 µM (inactive)"
- molecule: "O=C(N/C(=C\\c1ccc(/C=C(\\NC(=O)c2ccccc2)c2nc3ccccc3s2)cc1)c1nc2ccccc2s1)c1ccccc1"
  value.reported: "11.9 µM (inactive)"

Query molecule follows.
Query: Form entry - test system: Malme-3M; read-out: GI50; molecule: "COc1cccc(/C=C\c2ccc(O)cc2)c1"
Reply: 20.2 µM (inactive)

* * *

# Tested on: MCF7
# measurement.notes: NCI tumour cell line growth inhibition, 48 h
Activity calls are given as the source filed them. No stated cut-off is given here; in the data, active = GI50 up to about 1.1 µM and inactive = higher.
Answer with one of the outcomes active, inactive

Here's what some known entries look like.
- molecule: "O=c1[nH]/c(=C/c2ccc(OCc3ccccc3)cn2)c(=O)[nH]/c1=C/c1ccccc1"
  test.system: "MCF7"
  group.label: "active"
- molecule: "CC1CN(CCO)CC(C)O1 (stereo not given)"
  test.system: "MCF7"
  group.label: "inactive"
- molecule: "Cc1cc(/N=N/c2c(O)ccc3ccccc23)ccc1/N=N/c1cccc([N+](C)(C)C)c1"
  test.system: "MCF7"
  group.label: "inactive"
- molecule: "CCOC(=O)C1(Cc2ccccc2)C=CN(C(=O)c2ccccc2)C=C1"
  test.system: "MCF7"
  group.label: "inactive"
- molecule: "Cc1nn(-c2ccccc2)c2c1C(c1ccc(Cl)cc1)NC(=S)N2 (stereo not given)"
  test.system: "MCF7"
  group.label: "inactive"

Query: What did the test return for "O=C1c2sccc2C(=O)c2c(CO)csc21" ?
Reply: inactive

Query: Test call, this molecule: "COc1cccc(/C=C\c2ccc(O)cc2)c1"
Reply: inactive

Query: Could you please tell me the result logged for COc1cc2cc(C(=O)N3CC(COS(C)(=O)=O)c4ccc(O)cc43)[nH]c2c(OC)c1OC (stereo not given) in this assay?
Reply: active

Query: Returns: the outcome recorded for CCOC(=O)c1csc(C(CSCc2ccc(OC)cc2)N2C(=O)c3ccccc3C2=O)n1 (stereo not given) in this assay.
Reply: inactive

Query: Any idea what this test logged for CC1(C)OCC(C2OC(C)(C)OC2[C@H]2O[C@@]3(O)[C@H]4[C@H](C=CC[C@@H]42)[C@@H](OCc2ccccc2)[C@H](OCc2ccccc2)[C@H]3OCc2ccccc2)O1 (stereo not given in full) ?
Reply: inactive

* * *

# System: SNB-78
# measurement.notes: NCI tumour cell line growth inhibition, 48 h
Calls of active or inactive are those of the source. Rule as the data show it: active = GI50 up to about 1.1 µM and inactive = higher.
readout.type: GI50

Recorded results for 2 compounds are shown here.
- compound: "COC1=CC(=O)C2C(C1=O)C(c1ccc(OC)c(OC)c1)[C@H]2C (stereo partly drawn)"
  test.system: "SNB-78"
  GI50: "> 100 µM (inactive)"
- compound: "Nc1nc(OCc2ccccc2)c2nc[nH]c2n1"
  test.system: "SNB-78"
  GI50: "79.8 µM (inactive)"

Kindly review the next compound as well.
Query: Quick check: GI50 of "O=C1c2ccccc2C(=O)c2c(O)c(NCCNCCO)cc(O)c21" ?
Reply: 5.21 µM (inactive)

* * *

# Tested on: M14
# measurement.notes: NCI tumour cell line growth inhibition, 48 h
Active and inactive are the calls of the source. Rule as the data show it: active = GI50 up to about 1.1 µM and inactive = higher.
Returns: one label drawn from active, inactive

Worked cases, answers included:
- compound: "COc1ccc2c(c1)[n+]([O-])c1cc(C#N)ccc1[n+]2[O-]"
  group.label: "active"
- compound: "CCc1ccc(Nc2cc(=O)[nH]c(SCc3ccccc3)n2)cc1"
  group.label: "inactive"
- compound: "C[Si](C)(C)/N=C1\\N2C(=NC1(C(F)(F)F)C(F)(F)F)Sc1ccccc12"
  group.label: "inactive"
- compound: "COc1cc2ccccc2oc1=O"
  group.label: "inactive"
- compound: "Cc1ccc(C)c(NC(=O)CC2C(=O)Nc3ccccc3S2(=O)=O)c1 (stereo not drawn)"
  group.label: "inactive"

Query: Dear all, I need the recorded test outcome for COc1c2c3c4c(c(OC)c(=O)c5c(O)cc(OC)c(c6c(OC)cc(O)c(c1=O)c63)c54)C(C(C)O)C2C(C)O (stereo not drawn) , thank you.
Reply: active

Query: Hi, sorry to bother you, what did the test record for "CCCCCc1c2nc(c(CCCCC)c3ccc([nH]3)c(CCCCC)c3nc(c(CCCCC)c4ccc1[nH]4)C=C3)C=C2" ?
Reply: inactive

Query: Each compound tested received a call. Report the one for O=C1CC(c2ccccc2)C2(C(=O)NC(=S)NC2=O)C(c2ccccc2)C1 (stereo not drawn) .
Reply: inactive

Query: Which outcome was entered for the compound CC1C(OC2O[C@@H]3O[C@@]4(C)CC[C@H]5[C@H](C)CC[C@@H](C2C)[C@@]35O4)O[C@@H]2O[C@@]3(C)CC[C@H]4[C@H](C)CC[C@@H]1[C@@]24O3 (stereo partly drawn) in this test?
Reply: inactive

Query: Kindly provide the recorded test outcome for the following compound: O=C1OC(=O)C2C1C1(c3ccccc3)OC2(c2ccccc2)c2c(Br)c(Br)c(Br)c(Br)c21 (stereo not drawn)
Reply: inactive

Query: I would be grateful if you could indicate the recorded call for "Cc1cc(C)nc(NS(=O)(=O)c2ccc(Nc3c4ccc(Cl)cc4nc4c(C(=O)NCCN(C)C)cccc34)cc2)n1" .
Reply: inactive

Query: What did this assay record as the result for C=CCOC(=O)NC1C(OC(C)[C@@H](NC(=O)OCc2ccccc2)C(=O)OC(C)(C)C)OC(COC(C)=O)C(OC(C)=O)C1OC(C)=O (stereo partly drawn) ?
Reply: inactive

Query: I'd appreciate the recorded outcome for O=C(Nc1ccc(F)cc1)C(=O)C(C1OC(=O)c2ccccc21)[N+](=O)[O-] (stereo not drawn) from this test.
Reply: inactive

* * *

# Tested on: SW-620
# measurement.notes: NCI tumour cell line growth inhibition, 48 h
Activity calls are given as the source filed them. Cut-off read from the data, not from the text of the source: active = GI50 up to about 1.1 µM and inactive = higher.
The reply should be one of these categories: T (active), F (inactive)

These recorded examples may help you get a feel for the data.
- compound: "[N-]=[N+]=Nc1c([N+](=O)[O-])c(=O)n2c3c(cccc13)CCC2"
  group.label: "F"
- compound: "O=C1C=C(NCCOCCO)C(=O)c2c(O)ccc(O)c21"
  group.label: "F"
- compound: "O=C1c2ccccc2C2(O)Nc3cc(O)ccc3C12O (stereo unspecified)"
  group.label: "F"
- compound: "COc1cccc2c1C(=N)c1c(O)c3c(c(O)c1C2=O)C[C@@](O)(C(C)=O)C[C@@H]3OC1CC(N)C(O)C(C)O1 (stereo partly specified)"
  group.label: "T"
- compound: "Cc1cn(C2CCC(CO)(CF)O2)c(=O)[nH]c1=O (stereo unspecified)"
  group.label: "F"

Query: // outcome(item) with item = "N#CCCN(CCC#N)c1ccc(/C=C2\N=C(CN3C(=O)c4ccccc4C3=O)OC2=O)cc1"
Reply: F

* * *

Reported GI50 values follow for various compounds
# System: HL-60
# measurement.notes: NCI tumour cell line growth inhibition, 48 h
Active and inactive are the calls of the source. Cut-off read from the data, not from the text of the source: active = GI50 up to about 1.1 µM and inactive = higher.

- compound: "CCN(CC)CCCC(C)Nc1ccnc2cc3ccccc3cc12 (configuration not stated)"
  value.reported: "10.7 µM (inactive)"

Query: // returns reported GI50 for input "COC(=O)C1(C(=O)OC)CC(=O)c2cc3c(cc2-c2c(cc(OC)c(OC)c2OC)C1)OCO3"
Reply: 67.1 µM (inactive)

Query: Reported GI50 for "CC(=O)c1ccc2c(c1)oc(=O)n2CCN(C)C" : what is it?
Reply: > 100 µM (inactive)

Query: Would you kindly share the measured GI50 for "O=C(OCc1ccccc1)c1nc2ccccc2n1S(=O)(=O)c1ccccc1" ?
Reply: > 100 µM (inactive)

Query: Sample CCOC(=O)C(C#N)C1=CC(=O)C(=O)c2ccc(OC)cc21 (configuration not stated) — what was its GI50?
Reply: 38.3 µM (inactive)

Query: Please report the recorded GI50 for CC(C)c1ccccc1SC1CC(=O)CC(Sc2ccccc2C(C)C)C12O[C@H](c1ccccc1)[C@@H](c1ccccc1)O2 (some centres not stated) .
Reply: 12.3 µM (inactive)

Query: What does the data say about its GI50? Entry: "CCCCC(=O)NC1(c2cc3ccccc3s2)CCCCC1"
Reply: 4.89 µM (inactive)

* * *

# Test system: MDA-MB-435
# measurement.notes: NCI tumour cell line growth inhibition, 48 h
Activity calls are given as the source filed them. No stated cut-off is given here; in the data, active = GI50 up to about 1.1 µM and inactive = higher.
readout.type: GI50

Before answering, review these 4 worked examples.
- compound: "O=[N+]([O-])/C=C(\\CS(=O)(=O)c1ccccc1)c1ccc2c(c1)OCO2"
  value.reported: "23.8 µM (inactive)"
- compound: "NC(CSCc1ccccc1)C(=O)O (stereo not given)"
  value.reported: "> 100 µM (inactive)"
- compound: "COC(=O)C(=O)C(C(=O)C(=O)Nc1nnc(S)[nH]1)c1nc2ccc([N+](=O)[O-])cc2nc1O (stereo not given)"
  value.reported: "> 100 µM (inactive)"
- compound: "O=[N+]([O-])/C=C/c1cn(CCCCCCCCCCCCn2cc(/C=C/[N+](=O)[O-])c3ccccc32)c2ccccc12"
  value.reported: "> 100 µM (inactive)"

Shifting focus to the compound that follows.
Query: Query (compound): "CCOC(=O)CON=c1c2ccccc2ccc2ccccc12" ; field requested: GI50
Reply: > 100 µM (inactive)

Every entry's value here was drawn from ChEMBL document CHEMBL1201862.
